Target: sRAGE binding to S100b (Homo sapiens)
Construct: extracellular domain can be isolated by proteolysis of RAGE to generate soluble RAGE (sRAGE) comprised of the V and C domains
Sequence (Q15109 23-342 limits assumed): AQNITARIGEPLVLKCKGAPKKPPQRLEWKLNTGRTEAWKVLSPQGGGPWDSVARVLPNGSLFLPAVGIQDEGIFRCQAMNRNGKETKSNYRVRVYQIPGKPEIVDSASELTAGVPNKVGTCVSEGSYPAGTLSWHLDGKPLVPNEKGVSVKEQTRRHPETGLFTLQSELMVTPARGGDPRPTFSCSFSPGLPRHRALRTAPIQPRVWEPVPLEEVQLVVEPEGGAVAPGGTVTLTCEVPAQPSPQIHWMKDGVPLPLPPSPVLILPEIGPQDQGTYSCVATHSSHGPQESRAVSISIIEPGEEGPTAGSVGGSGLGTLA
Assay: RAGE binding assay (ELISA), S100b as the RAGE ligand
Conditions: compounds tested in hydrochloride salt form, concentration at which 50% signal has been inhibited
Structures can show the parent of a compound that is named as a salt.
assayMetric: IC50

Solved entries:
molecule: CCCCc1nnc(OC2CCN(C)CC2)cc1-c1ccc(OC2CCCCC2)c(OC)c1 [Example 73, dihydrochloride]
systemTested: sRAGE binding to S100b (Homo sapiens)
IC50: 1740 nM
--
molecule: CCCCc1nnc(OC2CCN(C)CC2)cc1-c1ccc(OC2CCCCC2)c(C(=O)OC)c1 [Example 71, dihydrochloride]
systemTested: sRAGE binding to S100b (Homo sapiens)
IC50: 1130 nM
--
molecule: CCCCc1nnc(O[C@H]2CCN(C)C[C@@H]2F)cc1-c1ccc(OC2CCCCC2)cc1 (racemic) [Example 41, dihydrochloride]
systemTested: sRAGE binding to S100b (Homo sapiens)
IC50: 2190 nM
--
molecule: CCCCc1nnc(O[C@H]2C[C@H]3CC[C@@H](C2)N3C)cc1-c1ccc(OC2CCCCC2)cc1 [Example 27, dihydrochloride]
systemTested: sRAGE binding to S100b (Homo sapiens)
IC50: 2690 nM
--
molecule: CCCCc1nnc(OC[C@H]2CN(C)CC[C@@H]2OC)cc1-c1ccc(OC2CCCCC2)cc1 (racemic) [Example 46, dihydrochloride]
systemTested: sRAGE binding to S100b (Homo sapiens)
IC50: 1350 nM

Let us examine a further case.
Quick check: IC50 of CCCCc1nnc(O[C@@H]2CN(C)CC[C@H]2C(F)F)cc1-c1ccc(OC2CCCCC2)cc1 (racemic) [Example 48, dihydrochloride] ? 2600 nM
